- tested-target: T1, Lsb3, P43603
- T1 sequence (P43603 385-451, looked up): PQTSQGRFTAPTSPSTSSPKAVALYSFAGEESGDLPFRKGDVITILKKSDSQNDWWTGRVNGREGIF
- method: SPOT array
- stated-conditions: median of control spots 406
measured-quantity: SPOT intensity

// known answers, use as guide
binder: SLSRRRFSLPSMPNV
SPOT intensity: 4
--
binder: FYHRPAPKPPVTKKV
SPOT intensity: 5
--
binder: NPNRRAPRRPLSTQH
SPOT intensity: 2
--
binder: AVPPPPPPPPLPESL
SPOT intensity: 0
--
binder: IAPIPMPKPNPTHIS
SPOT intensity: 0
--
binder: HPRFVSPRIPSRIVK
SPOT intensity: 41

P = HHKRRPTTIDVPGLT
Q = ERPKRRAPPPVPKKP
R = MSPLGAPPPPPHKDH
Given 3 binders, produce a descending ranking by SPOT intensity. API: response body holds the labels in the requested order.
Q, P, R
(Q: 188, P: 3, R: 0)

P = RPPRPPPKPLHLRTE
Q = KNRKNLPTIPIRLSG
R = YSRKKLPVVLSKMTL
S = VNIPSPSSSPPPIPK
Given 4 binders, produce a descending ranking by SPOT intensity. API: response body holds the labels in the requested order.
P, Q, R, S

I = GATNNAPTLPKRKNP
II = KKAPPPVVKPKPRNF
Which of the two gives a bigger number for SPOT intensity: I or II ? I would appreciate it if you answered with the label of your choice.
I
(I: 425, II: 0)

Data provenance: paper PMC2756588
